# ASSAY NAME: reduced viability of SK-BR-3 breast cancer cells – cell-based, 24 h, human, pilot screen (AID 572);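 further: compound exposure lasted between 18 and 24 h rather than exactly 24 h; 100% = carrier-treated control wells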
# STATED CONDITIONS: SK-BR-3 viability, CellTiter-Glo luminescence, at 10 µM, stronger effect = lower value
PROPERTY: viability (%)
Give the value in % but do not write % after it.

Please indicate viability recorded for COCCn1c(SCC(=O)N2CCc3ccccc32)nc2c(c1=O)SC(C)C2 (stereo unspecified)
77

Please indicate viability recorded for Cc1noc(/C=C/N(C)C)c1S(=O)(=O)N1CCCC(C(=O)NC2CCCCC2)C1 (stereo unspecified)
99

Please indicate viability recorded for CCCCc1cc2c(c(NC(C)=O)n1)c(=O)oc1ccccc12
112

Please indicate viability recorded for CCOC(=O)N1CCN(Cc2nc3c(c(=O)n(C)c(=O)n3C)n2Cc2ccccc2)CC1
104

Please indicate viability recorded for CC1Cc2nc(SCC(N)=O)n(Cc3ccccc3)c(=O)c2S1 (stereo unspecified)
88.5

Please indicate viability recorded for COCCCNC(=O)CSc1ccc(Cl)cc1
94.5
